Test: Metabolic stability in mouse liver microsomes
Format: in vitro ADME
Conditions: mouse liver microsomes 0.5 mg/mL, 2 μM compound; remaining percentage of parent at 60 min
property: Mouse microsome % 60 min (%)

* COc1cc(-c2cc(COC(C)(C)C(=O)O)nn2Cc2ccccc2Cl)cs1 | 83
* CC(C)(OCc1cc(-c2cccc(OC3CC3)c2)n(Cc2ccccc2Cl)n1)C(=O)O | 88

A: CCC(C)(OCc1cc(-c2cccc(OC)c2)n(Cc2ccccc2Cl)n1)C(=O)O (stereo not shown)
B: CC(C)COc1cccc(-c2cc(COC(C)(C)C(=O)O)nn2Cc2ccccc2Cl)c1
## Input Which value of Mouse microsome % 60 min is smaller, the one for A or the one for B ? Write down the label attached to your selection.
## Output B
